Experiment: Solubility in stimulated intestinal fluid at pH 7 after 3 days
Assay type: physicochemical
Details: simulated intestinal fluid
readout_type: solubility at 72 h (µM)

NC(=O)c1ccc2[nH]c(-c3ccc(OCCC4CCN(C(=O)c5ccccc5)CC4)cc3)nc2c1: 3

I = NC(=O)c1ccc2[nH]c(-c3ccc(OC4CCC(O)C4)cc3)nc2c1 (stereo not given)
II = NC(=O)c1ccc2[nH]c(-c3ccc(OCCC4CCN(Cc5ccc(Cl)c(Cl)c5)CC4)cc3)nc2c1
Prompt: Consider I and II . Which of these has its solubility at 72 h at a higher number? Lab log: write the label of the selected item as the result.
Response: I
(I: 139 µM, II: 15 µM)
